Below, each entry is listed alongside its reported IC50.
# Experimental target: BACE1 (Homo sapiens)
# Sequence (P56817 46-501, species assumed): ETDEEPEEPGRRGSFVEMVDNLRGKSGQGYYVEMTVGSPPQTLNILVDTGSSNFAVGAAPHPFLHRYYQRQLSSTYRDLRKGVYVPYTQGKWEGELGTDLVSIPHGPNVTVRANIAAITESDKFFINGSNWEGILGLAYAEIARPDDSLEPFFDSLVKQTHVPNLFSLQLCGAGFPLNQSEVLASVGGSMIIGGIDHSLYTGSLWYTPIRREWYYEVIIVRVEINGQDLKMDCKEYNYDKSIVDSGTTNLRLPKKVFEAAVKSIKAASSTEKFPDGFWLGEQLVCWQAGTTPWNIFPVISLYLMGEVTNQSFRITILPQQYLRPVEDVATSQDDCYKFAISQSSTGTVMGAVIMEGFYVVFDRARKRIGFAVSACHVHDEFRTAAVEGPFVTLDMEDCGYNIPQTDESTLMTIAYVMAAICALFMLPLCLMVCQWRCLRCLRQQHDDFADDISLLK
# Protocol description: In Vitro BACE Cell-based Assay (HEK cell assay): Aβ40 in conditioned medium of cells stably expressing Amyloid Precursor Protein, sandwich ELISA
# Condition description: Table 1; Aβ40, 24 h incubation; read-out: HEK cell assay

INSERT INTO assay_data (molecule, reported_endpoint, value_measured) VALUES
  ('COc1ccc2c(c1)[C@]1(COC(N)=N1)c1cc(-c3cncnc3)ccc1O2 [Example 10]', 'IC50', '1 to 5 µM');

// lookup IC50 for COc1ccc2c(c1)C1(COC(N)=N1)c1cc(-c3cc(Cl)c(C)cc3F)ccc1O2 (stereo not drawn) [Example 23] > 5 µM

// lookup IC50 for COc1ccc(F)c(-c2ccc3c(c2)C2(COC(N)=N2)c2cc(OC)ccc2O3)c1 (stereo not drawn) [Example 15] > 5 µM

// lookup IC50 for COc1ccc2c(c1)C1(COC(N)=N1)c1cc(-c3ccc(OC(F)(F)F)cc3)ccc1O2 (stereo not drawn) [Example 27] 1 to 5 µM

// lookup IC50 for COc1ccc2c(c1)C1(COC(N)=N1)c1cc(-c3ccccc3C)ccc1O2 (stereo not drawn) [Example 32] 1 to 5 µM

// lookup IC50 for COc1ccc2c(c1)C1(COC(N)=N1)c1cc(-c3cccc(OC(F)(F)F)c3)ccc1O2 (stereo not drawn) [Example 22] 1 to 5 µM
